The compounds listed here are annotated with their Relative activity (%) […]-MCA.
- TGT: proteasome from skeletal muscle (Oryctolagus cuniculus)
- Construct: from tissue; host or cells: rabbit skeletal (psoas) muscle, proteasome fraction after Mono Q and Superose 6
- Assay type: biochemical, rabbit
Value expressed in %; do not type the unit.

Sample answers from the record:
{"columns": ["COMPOUND", "Relative activity (%) […]-MCA"],
 "data": [
  ["CCCCCCCC/C=C\\CCCCCCCC(=O)[O-].[Na+] [NaOleate, Sodium oleate]", 179],
  ["CCCCCCCCCCCCOS(=O)(=O)[O-].[Na+] [SDS, sodium dodecyl sulfate]", 125],
  ["CC(=O)N[C@@H](CC(C)C)C(=O)N[C@@H](CC(C)C)C(=O)N[C@H](C=O)CCCNC(=N)N", 83],
  ["CCN1C(=O)C=CC1=O [NEM, N-ethylmaleimide]", 37],
  ["CC(C)C[C@H](NC(=O)[C@H]1O[C@@H]1C(=O)O)C(=O)NCCCCNC(=N)N", 100]
]}

Turning to the following compound.
Record c1cnc2c(c1)ccc1cccnc12 . Reported Relative activity (%) […]-MCA: 60

* * *

- Test system: new protease (multipain) from skeletal muscle
- CONDITIONS: Table IV; None = 100; 2 mM ATP, 37° C. 1 h; concentrations as in E1
Consider the following compounds and their measured Relative activity (%) NEW […] OH/O2 - treated hemoglobin readings.
Note: unit % is implicit; provide only the numeric part.

Some solved entries appear below for comparison.
{"columns": ["COMPOUND", "TGT", "RESULT_UNITS", "OBSERVED_MEASUREMENT"],
 "data": [
  ["CCN1C(=O)C=CC1=O [NEM, N-ethylmaleimide]", "new protease (multipain) from skeletal muscle", "%", 30],
  ["c1cnc2c(c1)ccc1cccnc12", "new protease (multipain) from skeletal muscle", "%", 54],
  ["CCCCCCCC/C=C\\CCCCCCCC(=O)[O-].[Na+] [NaOleate, Sodium oleate]", "new protease (multipain) from skeletal muscle", "%", 40],
  ["CC(C)C[C@H](NC(=O)[C@H]1O[C@@H]1C(=O)O)C(=O)NCCCCNC(=N)N", "new protease (multipain) from skeletal muscle", "%", 100],
  ["CCCCCCCCCCCCOS(=O)(=O)[O-].[Na+] [SDS, sodium dodecyl sulfate]", "new protease (multipain) from skeletal muscle", "%", 42]
]}

Below: the item to evaluate.
Short answer for CC(=O)N[C@@H](CC(C)C)C(=O)N[C@@H](CC(C)C)C(=O)N[C@H](C=O)CCCNC(=N)N : Relative activity (%) NEW […] OH/O2 - treated hemoglobin was 73

* * *

- Tested on: new protease (multipain) from skeletal muscle
- CONDITIONS: Table IV; None = 100; 2 mM ATP, 37° C. 1 h; concentrations as in E1
QUANTITY_MEASURED: Relative activity (%) NEW […] lysozyme
Returns: string containing the number followed by the unit.

{"columns": ["MOLECULE", "OBSERVED_MEASUREMENT"],
 "data": [
  ["CC(=O)N[C@@H](CC(C)C)C(=O)N[C@@H](CC(C)C)C(=O)N[C@H](C=O)CCCNC(=N)N", "72%"]
]}

Proceeding to the next molecule to report its Relative activity (%) NEW […] lysozyme.
Log: new protease (multipain) from skeletal muscle, molecule CC(C)C[C@H](NC(=O)[C@H]1O[C@@H]1C(=O)O)C(=O)NCCCCNC(=N)N , Relative activity (%) NEW […] lysozyme = 100%

* * *

- Tested on: new protease (multipain) from skeletal muscle
- CONDITIONS: Table III
QUANTITY_MEASURED: effect of nucleotides on Ub-125I-lysozyme hydrolysis by the purified enzyme, in words

{"columns": ["MOLECULE", "OBSERVED_MEASUREMENT"],
 "data": [
  ["Nc1ncnc2c1ncn2[C@@H]1O[C@H](COP(=O)(O)OP(=O)(O)O)[C@@H](O)[C@H]1O", "no significant effect"],
  ["Nc1ncnc2c1ncn2[C@@H]1O[C@H](COP(=O)(O)OP(=O)(O)OP(O)(O)=S)[C@@H](O)[C@H]1O [ATP-γ-S, adenosine 5'-o-thiotriphosphate]", "No stimulation"],
  ["Nc1ncnc2c1ncn2[C@@H]1O[C@H](COP(=O)(O)O)[C@@H](O)[C@H]1O", "no significant effect"],
  ["Nc1ncnc2c1ncn2[C@@H]1O[C@H](COP(=O)(O)OP(=O)(O)NP(=O)(O)O)[C@@H](O)[C@H]1O [AMP-PNP, adenyl 5'-oyl-imidodiphosphate]", "No stimulation"]
]}

* * *

- Tested on: new protease (multipain) from skeletal muscle
- CONDITIONS: Table IV; None = 100; 2 mM ATP, 37° C. 1 h; DFP 1 mM; Cystatin A 4 uM; Hemin 0.1 mM; NEM 1 mM; Leupeptin 0.1 mM; E64 0.1 mM; NaOleate 0.125 mM; SDS 0.01%; o-Phenanthroline 0.1 mM
QUANTITY_MEASURED: Relative activity (%) NEW […] Ub-lysozyme
Expressed in %, but write only the number.

Study these solved cases before continuing.
{"columns": ["COMPOUND", "OBSERVED_MEASUREMENT"],
 "data": [
  ["CCCCCCCC/C=C\\CCCCCCCC(=O)[O-].[Na+] [NaOleate, Sodium oleate]", 29],
  ["CCN1C(=O)C=CC1=O [NEM, N-ethylmaleimide]", 29],
  ["CC(C)C[C@H](NC(=O)[C@H]1O[C@@H]1C(=O)O)C(=O)NCCCCNC(=N)N", 100],
  ["c1cnc2c(c1)ccc1cccnc12", 48]
]}

Per the records, this compound ( CC(=O)N[C@@H](CC(C)C)C(=O)N[C@@H](CC(C)C)C(=O)N[C@H](C=O)CCCNC(=N)N ) has Relative activity (%) NEW […] Ub-lysozyme equal to 69

* * *

- System: 1500 kDa complex (proteasome-multipain)
- CONDITIONS: Table VIII
QUANTITY_MEASURED: effect of nucleotides on Ub-125I-lysozyme hydrolysis by the complex, in words

{"columns": ["COMPOUND", "OBSERVED_MEASUREMENT"],
 "data": [
  ["Nc1ncnc2c1ncn2[C@@H]1O[C@H](COP(=O)(O)O)[C@@H](O)[C@H]1O", "no significant effect"],
  ["Nc1ncnc2c1ncn2[C@@H]1O[C@H](COP(=O)(O)OP(=O)(O)OP(O)(O)=S)[C@@H](O)[C@H]1O [ATP-γ-S, adenosine 5'-o-thiotriphosphate]", "No stimulation"],
  ["Nc1ncnc2c1ncn2[C@@H]1O[C@H](COP(=O)(O)OP(=O)(O)NP(=O)(O)O)[C@@H](O)[C@H]1O [AMP-PNP, adenyl 5'-oyl-imidodiphosphate]", "No stimulation"],
  ["Nc1ncnc2c1ncn2[C@@H]1O[C@H](COP(=O)(O)OP(=O)(O)O)[C@@H](O)[C@H]1O", "no significant effect"]
]}

* * *

- TGT: proteasome from skeletal muscle (Oryctolagus cuniculus)
- Construct: from tissue; host or cells: rabbit skeletal (psoas) muscle, proteasome fraction after Mono Q and Superose 6
- Type: biochemical, rabbit
Cut-off 80% on Realtive Activity (%) Proteasome (sLLVT-MCA): below means condition met, at or above means condition not met.

Please review the following examples before continuing.
{"columns": ["COMPOUND", "CATEGORY_LABEL"],
 "data": [
  ["CCN1C(=O)C=CC1=O [NEM, N-ethylmaleimide]", "condition met"],
  ["CC(=O)N[C@@H](CC(C)C)C(=O)N[C@@H](CC(C)C)C(=O)N[C@H](C=O)CCCNC(=N)N [Leupeptin]", "condition not met"],
  ["CCCCCCCC/C=C\\CCCCCCCC(=O)[O-].[Na+] [NaOleate, Sodium oleate]", "condition not met"],
  ["c1cnc2c(c1)ccc1cccnc12 [o-Phenanthroline]", "condition met"],
  ["CC(C)C[C@H](NC(=O)[C@H]1O[C@@H]1C(=O)O)C(=O)NCCCCNC(=N)N [E64]", "condition not met"]
]}

Now, please, on to the next compound.
State whether 80% exceeds Realtive Activity (%) Proteasome (sLLVT-MCA) recorded for CCCCCCCCCCCCOS(=O)(=O)[O-].[Na+] [SDS, sodium dodecyl sulfate] .
condition not met

* * *

Each record here notes measured Relative activity (%) NEW […] lysozyme.
- Test system: new protease (multipain) from skeletal muscle
- CONDITIONS: Table IV; None = 100; 2 mM ATP, 37° C. 1 h; concentrations as in E1

{"columns": ["COMPOUND", "OBSERVED_MEASUREMENT"],
 "data": [
  ["CCCCCCCCCCCCOS(=O)(=O)[O-].[Na+] [SDS, sodium dodecyl sulfate]", "46%"]
]}

Data point: CCCCCCCC/C=C\CCCCCCCC(=O)[O-].[Na+] [NaOleate, Sodium oleate] ; Relative activity (%) NEW […] lysozyme = 34%

Relative activity (%) NEW […] lysozyme recorded for this compound, c1cnc2c(c1)ccc1cccnc12 , is 55%

Reported Relative activity (%) NEW […] lysozyme for CCN1C(=O)C=CC1=O [NEM, N-ethylmaleimide] was 27%
